Target: T1, human Y2 receptor (human, UniProt P49146 1-381)
T1 construct: whole, on cells
T1 sequence (looked up): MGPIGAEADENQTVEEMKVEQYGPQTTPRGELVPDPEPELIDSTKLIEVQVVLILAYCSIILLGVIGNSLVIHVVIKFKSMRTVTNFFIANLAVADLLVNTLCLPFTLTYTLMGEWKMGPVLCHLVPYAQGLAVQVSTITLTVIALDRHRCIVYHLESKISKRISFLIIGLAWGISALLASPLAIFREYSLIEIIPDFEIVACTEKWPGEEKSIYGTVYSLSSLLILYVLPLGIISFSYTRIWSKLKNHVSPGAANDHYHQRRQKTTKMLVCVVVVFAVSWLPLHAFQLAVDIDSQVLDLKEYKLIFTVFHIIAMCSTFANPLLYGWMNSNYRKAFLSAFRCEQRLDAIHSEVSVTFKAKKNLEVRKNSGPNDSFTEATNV
Experiment: 125I-PYY displacement, COS-7 membranes
Observed Property: Ki (nM)
Return type: number; implicit unit nM.

The reported value for HYINLITRQRY (peptide, UniProt P01304 35-45, looked up, range 26-36; Range counted on the mature peptide) [porcine NPY26-36] in terms of Ki is 380
